- method_summary: TIMS collisional cross section (CCS, N2) of the lipid ion; higher = larger ion cross section
- condition_label: sample type: HeLa; ionization mode: positive; one isomer drawn
property_measured: TIMS collisional cross section (Å²)

1. CCCCC/C=C\C/C=C\C/C=C\C/C=C\CCCCCC(=O)OC[C@@H](COC(=O)CCCCCCCCCCCCCCCCC)OC(=O)CCCCCCC/C=C\C/C=C\CCCCC [TG 18:0_18:2_22:4] (ion (formula + adduct): [C61H106O6+NH4] 1+)
2. CCCCCCCCCCCCC/C=C/C=C/C(=O)OC[C@@H](O)COP(=O)([O-])OCC[N+](C)(C)C (ion (formula + adduct): [C26H50NO7P+H] 1+)
Exercise: Which entry shows the lesser value of TIMS collisional cross section here, 1 or 2 ? # answer = label of selected item
Solution: 2
(2: 228.2 Å², 1: 335.4 Å²)

----------
- method_summary: TIMS collisional cross section (CCS, N2) of the lipid ion; higher = larger ion cross section
- condition_label: sample type: Liver; ionization mode: positive; one isomer drawn
property_measured: TIMS collisional cross section (Å²)

{"columns": ["compound", "unit_symbol", "measured_number"],
 "data": [
  ["CCCCC/C=C\\C/C=C\\C/C=C\\CCCCC(=O)O[C@H](COC(=O)CCCCCCC/C=C\\C/C=C\\CCCCC)COP(=O)([O-])OCC[N+](C)(C)C [PC 18:2_18:3@] (ion (formula + adduct): [C44H78NO8P+H] 1+)", "Å²", 289.9],
  ["CCCCC/C=C\\C/C=C\\CCCCCCCC(=O)OC[C@@H](COC(=O)CCCCCCCCCCCCCCCC)OC(=O)CCCCCCC/C=C\\CCCCCCCC [TG 17:0_18:1_18:2] (ion (formula + adduct): [C56H102O6+NH4] 1+)", "Å²", 322.9],
  ["CCCC/C=C\\CCCCCCCC(=O)OC[C@H](COC(=O)CCCCCCC/C=C\\CCCCCC)OC(=O)CCCCCCC/C=C\\CCCC [TG 14:1_14:1_16:1] (ion (formula + adduct): [C47H84O6+NH4] 1+)", "Å²", 291.2],
  ["CC/C=C\\C/C=C\\C/C=C\\C/C=C\\C/C=C\\C/C=C\\CCC(=O)OC[C@@H](COC(=O)CCCCCCCCCCCCCCC)OC(=O)CCCCCCCCCCCCCCCCCCCCC [TG 16:0_22:0_22:6] (ion (formula + adduct): [C63H110O6+NH4] 1+)", "Å²", 340.7]
]}

----------
- method_summary: TIMS collisional cross section (CCS, N2) of the lipid ion; higher = larger ion cross section
- condition_label: sample type: HeLa; ionization mode: positive; one isomer drawn
property_measured: TIMS collisional cross section (Å²)

{"columns": ["compound", "unit_symbol", "TIMS collisional cross section"],
 "data": [
  ["CCCCCC/C=C\\CCCCCCCCCC(=O)O[C@H](CO)COP(=O)(O)OCCN [LPE 18:1] (ion (formula + adduct): [C23H46NO7P+H] 1+)", "Å²", 218.1],
  ["CC/C=C\\C/C=C\\C/C=C\\C/C=C\\C/C=C\\CCCC(=O)OC[C@@H](COC(=O)CCCCCCCCCCCCC)OC(=O)CCCCCCC/C=C\\CCCCCC [TG 14:0_16:1_20:5] (ion (formula + adduct): [C53H90O6+NH4] 1+)", "Å²", 310.6],
  ["CCCCCCCCCCCCCCCCCC(=O)OC[C@H](COP(=O)(O)OCCN)OC(=O)CCCCCCCCCCCCCCC [PE 18:0@_16:0] (ion (formula + adduct): [C39H78NO8P+H] 1+)", "Å²", 280.3]
]}

----------
- method_summary: TIMS collisional cross section (CCS, N2) of the lipid ion; higher = larger ion cross section
- condition_label: sample type: plasma; ionization mode: positive; one isomer drawn
property_measured: TIMS collisional cross section (Å²)

{"columns": ["molecule", "unit_symbol", "measured_number"],
 "data": [
  ["CC/C=C\\C/C=C\\C/C=C\\C/C=C\\C/C=C\\CCCCCC(=O)OC[C@@H](COC(=O)CCCCCCC/C=C\\CCCCCCCC)OC(=O)CCCCCCC/C=C\\CCCCCCCC [TG 18:1_18:1_22:5] (ion (formula + adduct): [C61H104O6+NH4] 1+)", "Å²", 332.6],
  ["CC/C=C\\C/C=C\\C/C=C\\CCCCCCCC(=O)OC[C@@H](COC(=O)CCCCCCCCCCCCCCC)OC(=O)CCCCCCC/C=C\\C/C=C\\CCCCC [TG 16:0_18:2_18:3] (ion (formula + adduct): [C55H96O6+NH4] 1+)", "Å²", 315.8],
  ["CC/C=C\\C/C=C\\C/C=C\\C/C=C\\C/C=C\\CCCC(=O)OC[C@@H](COC(=O)CCCCCCCCCCCCCCCCC)OC(=O)CCCCCCC/C=C\\C/C=C\\C/C=C\\CC [TG 18:0_18:3_20:5] (ion (formula + adduct): [C59H98O6+NH4] 1+)", "Å²", 325.1],
  ["CCCC/C=C\\CCCCCCCCCCOC[C@@H](O)COP(=O)([O-])OCC[N+](C)(C)C [LPC O- 16:1] (ion (formula + adduct): [C24H50NO6P+H] 1+)", "Å²", 224.8],
  ["CCCCCCCC/C=C\\CCCCCCCC(=O)O[C@H](COC(=O)CCCCCCCCCCCCCCC)COC(=O)CCCCCCCCCCCCCCCCCCCC [TG 16:0_18:1_21:0] (ion (formula + adduct): [C58H110O6+NH4] 1+)", "Å²", 333.1],
  ["CCCCC/C=C\\C/C=C\\CCCCCCCC(=O)OC[C@H](COP(=O)([O-])OCC[N+](C)(C)C)OC(=O)CCCCCCCCCCCCCCCCCCCCCCC [PC 18:2@_24:0] (ion (formula + adduct): [C50H96NO8P+H] 1+)", "Å²", 310.1],
  ["CCCCCCCCCCCCCCCCCC(=O)O[C@H](CO)COP(=O)([O-])OCC[N+](C)(C)C [LPC 18:0] (ion (formula + adduct): [C26H54NO7P+H] 1+)", "Å²", 238.4],
  ["CCC/C=C\\CCCCCCCC/C=C/[C@@H](O)[C@H](COP(=O)([O-])OCC[N+](C)(C)C)NC(=O)CCCCCCCCCCCCCCCCCCCCC [SM d18:2_22:0@] (ion (formula + adduct): [C45H89N2O6P+H] 1+)", "Å²", 299.9],
  ["CCCCC/C=C\\C=C/CCCCCCCCC(=O)O[C@H](COC(=O)CCCCCCCCCCCCCCCCC)COP(=O)([O-])OCC[N+](C)(C)C [PC 18:0_18:2] (ion (formula + adduct): [C44H84NO8P+H] 1+)", "Å²", 291.1],
  ["CCCCCCCCCCCCCCCCCCCCCC(=O)OC[C@@H](COC(=O)CCCCCCCCCCCCCCCCC)OC(=O)CCCCCCCCCCCCCCCCCCCCC [TG 18:0_22:0_22:0] (ion (formula + adduct): [C65H126O6+NH4] 1+)", "Å²", 355.2],
  ["CCCCCCCCCCCCCCCCCCCCCC(=O)OC[C@@H](COC(=O)CCCCCCCCCCCCCCC)OC(=O)CCCCCCCCCCCCCCCC [TG 16:0_17:0_22:0] (ion (formula + adduct): [C58H112O6+NH4] 1+)", "Å²", 334.9],
  ["CCCCCCCC/C=C\\CCCCCCCC(=O)OC[C@H](COC(=O)CCCCCCCCCCCCCCCCCCCC)OC(=O)CCCCCCC/C=C\\CCCCCCCC [TG 18:1_18:1_21:0] (ion (formula + adduct): [C60H112O6+NH4] 1+)", "Å²", 336.2],
  ["CCCCCC/C=C\\CCCCCCCC(=O)O[C@H](COC(=O)CCCCCCCCCCCCC)COC(=O)CCCCCCCCCCCCCCCC [TG 14:0_16:1_17:0] (ion (formula + adduct): [C50H94O6+NH4] 1+)", "Å²", 309],
  ["CCCCCCCCCCCCCCCC(=O)OCC(CO)OC(=O)CCCCCCCCCCCCCCC (stereo not drawn) [DG 16:0_16:0_0:0] (ion (formula + adduct): [C35H68O5+Na] 1+)", "Å²", 253.8],
  ["CCCCC/C=C\\C/C=C\\CCCCCCCC(=O)OC[C@@H](COC(=O)CCCCCCCCCCCC)OC(=O)CCCCCCC/C=C\\CCCCCC [TG 13:0_16:1_18:2] (ion (formula + adduct): [C50H90O6+NH4] 1+)", "Å²", 305.3],
  ["CCCCCC/C=C\\CCCCCCCC(=O)O[C@@H](COC(=O)CCCCCCC/C=C\\CCCCCCC)COC(=O)CCCCCCCCCCCCC [TG 14:0_16:1_17:1] (ion (formula + adduct): [C50H92O6+NH4] 1+)", "Å²", 307.3],
  ["CCCCC/C=C\\C/C=C\\C/C=C\\C/C=C\\CCCCCC(=O)OC[C@@H](O)COP(=O)([O-])OCC[N+](C)(C)C [LPC 22:4] (ion (formula + adduct): [C30H54NO7P+H] 1+)", "Å²", 237.55],
  ["CCCCCC/C=C\\CCCCCCCC(=O)O[C@@H](COC(=O)CCCCCCC/C=C\\CCCCCCCC)COC(=O)CCCCCCCCCCCCCCC [TG 16:0_16:1_18:1] (ion (formula + adduct): [C53H98O6+NH4] 1+)", "Å²", 315.8]
]}

Data origin: the supplement of paper PMC6965134
